- target-under-test: DNMT1 (amino acids 621–1616) (Homo sapiens, UniProt P26358)
- Construct: RFTS-lacking DNMT1, amino acids 621–1616; made in house
- Sequence (P26358 621-1616): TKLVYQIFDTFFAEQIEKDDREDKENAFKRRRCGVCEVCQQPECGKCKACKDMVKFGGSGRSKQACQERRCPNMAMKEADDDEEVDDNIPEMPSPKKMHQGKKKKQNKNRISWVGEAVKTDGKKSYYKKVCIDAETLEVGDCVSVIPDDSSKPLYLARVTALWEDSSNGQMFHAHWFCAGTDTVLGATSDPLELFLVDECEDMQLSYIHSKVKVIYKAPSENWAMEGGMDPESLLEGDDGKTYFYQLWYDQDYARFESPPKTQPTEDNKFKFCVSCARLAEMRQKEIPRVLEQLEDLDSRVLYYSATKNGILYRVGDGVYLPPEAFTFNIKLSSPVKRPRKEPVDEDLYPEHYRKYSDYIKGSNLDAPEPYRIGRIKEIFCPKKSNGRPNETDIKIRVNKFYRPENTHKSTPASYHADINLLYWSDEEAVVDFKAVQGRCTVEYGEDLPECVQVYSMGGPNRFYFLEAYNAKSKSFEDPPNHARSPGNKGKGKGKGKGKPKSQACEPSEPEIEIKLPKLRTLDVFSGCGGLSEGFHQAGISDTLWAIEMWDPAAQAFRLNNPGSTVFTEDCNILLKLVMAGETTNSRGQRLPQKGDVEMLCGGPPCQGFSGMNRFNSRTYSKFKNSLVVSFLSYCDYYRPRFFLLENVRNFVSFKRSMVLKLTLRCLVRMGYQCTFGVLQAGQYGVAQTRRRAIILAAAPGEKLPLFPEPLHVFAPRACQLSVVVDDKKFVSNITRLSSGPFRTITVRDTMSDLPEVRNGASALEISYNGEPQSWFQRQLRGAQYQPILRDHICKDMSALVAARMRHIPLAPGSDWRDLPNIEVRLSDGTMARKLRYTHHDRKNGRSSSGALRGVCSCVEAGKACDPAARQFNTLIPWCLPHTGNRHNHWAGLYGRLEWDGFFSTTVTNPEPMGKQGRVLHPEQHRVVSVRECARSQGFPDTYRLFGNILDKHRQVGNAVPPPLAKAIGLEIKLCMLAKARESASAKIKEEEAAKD
- test-protocol: Detergent test, endonuclease-coupled DNA methylation assay
- Assay type: biochemical
- condition-description: 5 µM compound, absence of 0.01% Triton X-100; read-out: Percent activity, 0.01% Triton X-100 -
// boundary case: remaining activity at 5 µM equal to 7% maps to No; strictly smaller maps to Yes

Please review the entries below; each comes with its answer.
Is remaining activity at 5 µM strictly under 7% for the entry O=C1c2ccccc2C(=O)c2c1ccc(O)c2O ? No

Is it true that remaining activity at 5 µM reported for O=C(O)C(S)C(S)C(=O)O (stereo not drawn) is less than 7%? No

In the record for Oc1cc(Cl)ccc1Oc1ccc(Cl)cc1Cl , is remaining activity at 5 µM less than 7%? No

Others:
I'd appreciate it if you could check whether CC1/C=C/C=C/C=C/C=C/C=C/C=C/C=C/C(O[C@@H]2O[C@H](C)[C@H](O)[C@@H](O)[C@@H]2N)CC(O)C(C(=O)O)C(O)CC(=O)CC(O)CC(O)CC(O)CC(=O)CCCC(=O)CC(=O)OC1C(C)CC(C)C(O)CC(=O)c1ccc(N)cc1 (stereo partly drawn) has remaining activity at 5 µM smaller than 7%. Yes

# check: remaining activity at 5 µM < 7% for O=C(O)c1cc(O)c2c(c1)[C@@H]([C@@H]1c3cc(C(=O)O)cc(O)c3C(=O)c3c(O[C@H]4O[C@H](CO)[C@@H](O)[C@H](O)[C@H]4O)cccc31)c1cccc(O[C@H]3O[C@H](CO)[C@@H](O)[C@H](O)[C@H]3O)c1C2=O Yes

###

- target-under-test: CD-DNMT3A/DNMT3L complex (Homo sapiens)
- Construct: CD-DNMT3A; amino acids 611–912; His tag (N); made in house; host or cells: Rosetta 2(DE3)pLysS (E. coli) for CD-DNMT3A
- Sequence (Q9Y6K1 611-912): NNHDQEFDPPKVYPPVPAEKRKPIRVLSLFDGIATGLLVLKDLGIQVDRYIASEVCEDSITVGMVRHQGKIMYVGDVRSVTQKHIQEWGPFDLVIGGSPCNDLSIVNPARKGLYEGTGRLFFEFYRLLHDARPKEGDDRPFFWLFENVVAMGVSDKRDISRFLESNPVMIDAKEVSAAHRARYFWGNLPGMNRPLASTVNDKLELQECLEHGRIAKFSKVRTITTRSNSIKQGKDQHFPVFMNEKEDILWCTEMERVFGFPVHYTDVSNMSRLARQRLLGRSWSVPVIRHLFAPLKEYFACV
- Sequence (Q9UJW3 whole entry partner, the tested form may be a part): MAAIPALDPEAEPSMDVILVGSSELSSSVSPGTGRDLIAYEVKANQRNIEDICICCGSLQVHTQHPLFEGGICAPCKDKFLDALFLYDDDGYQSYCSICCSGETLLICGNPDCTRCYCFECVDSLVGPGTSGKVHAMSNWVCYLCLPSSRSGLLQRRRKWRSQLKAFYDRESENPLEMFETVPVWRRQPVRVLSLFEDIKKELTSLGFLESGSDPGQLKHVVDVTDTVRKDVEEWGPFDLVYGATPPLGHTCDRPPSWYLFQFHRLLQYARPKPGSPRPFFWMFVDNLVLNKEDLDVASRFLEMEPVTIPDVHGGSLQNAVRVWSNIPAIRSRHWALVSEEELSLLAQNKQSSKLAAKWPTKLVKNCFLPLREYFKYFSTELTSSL
- test-protocol: Compound selectivity, endonuclease-coupled DNA methylation assay
- Type: biochemical
- condition-description: 20 µM inhibitor, 20 nM methyltransferase, 0.25 mM SAM
Consider the following molecules; for each one, report its Percent activity, DNMT3A/DNMT3L Complex.
Answers are plain numbers, in %.

Previously resolved entries follow.
State the recorded Percent activity, DNMT3A/DNMT3L Complex for this entry: O=C(O)c1cc(O)c2c(c1)[C@@H]([C@@H]1c3cc(C(=O)O)cc(O)c3C(=O)c3c(O[C@H]4O[C@H](CO)[C@@H](O)[C@H](O)[C@H]4O)cccc31)c1cccc(O[C@H]3O[C@H](CO)[C@@H](O)[C@H](O)[C@H]3O)c1C2=O 83

I am curious: what Percent activity, DNMT3A/DNMT3L Complex value has been reported for Nc1ncn([C@@H]2O[C@H](CO)[C@@H](O)[C@H]2O)c(=O)n1 [5-aza-cytidine, reference compound] ? 97

Would you mind telling me what Percent activity, DNMT3A/DNMT3L Complex value was observed for O=C1c2ccccc2C(=O)c2c1ccc(O)c2O ? 49

Endpoint output: Percent activity, DNMT3A/DNMT3L Complex of CSc1nc2cc(Cl)c(Oc3cccc(Cl)c3Cl)cc2[nH]1 . Value? 110

GET /values?readout=Percent activity, DNMT3A/DNMT3L Complex&item= O=C(O)C(S)C(S)C(=O)O (stereo not shown) 61

Hi team, please reply with Percent activity, DNMT3A/DNMT3L Complex for each item in this list.
1. Oc1cc(Cl)ccc1Oc1ccc(Cl)cc1Cl
2. O=C(O)c1cc(O)c2c(c1)[C@@H]([C@H]1c3cc(C(=O)O)cc(O)c3C(=O)c3c(O[C@H]4O[C@H](CO)[C@@H](O)[C@H](O)[C@H]4O)cccc31)c1cccc(O[C@H]3O[C@H](CO)[C@@H](O)[C@H](O)[C@H]3O)c1C2=O

23
88

Provide Percent activity, DNMT3A/DNMT3L Complex values for the following items, in order.
1. CC(=O)NCCc1ccc(O)c(-c2c(O)c(O)c3c(c2O)C(=O)c2c(cc(O)c(C(=O)O)c2C(=O)O)C3=O)c1
2. O=c1c(O)c(-c2ccc(O)c(O)c2)oc2c(O)c(O)cc(O)c12
3. CC1/C=C/C=C/C=C/C=C/C=C/C=C/C=C/C(O[C@@H]2O[C@H](C)[C@H](O)[C@@H](O)[C@@H]2N)CC(O)C(C(=O)O)C(O)CC(=O)CC(O)CC(O)CC(O)CC(=O)CCCC(=O)CC(=O)OC1C(C)CC(C)C(O)CC(=O)c1ccc(N)cc1 (stereo partly shown)

80
74
49

###

- target-under-test: DNMT1 (amino acids 621–1616) (Homo sapiens)
- Construct: RFTS-lacking DNMT1, amino acids 621–1616; made in house
- test-protocol: Validation of HTS hits, endonuclease-coupled DNA methylation assay
- Type: biochemical
- condition-description: first 12 minutes of GlaI corrected triplicate reaction traces
- Experimental: DNMT activity was measured at 37°C using a fluorogenic DNA methylation assay. […] The fully methylated product is a substrate for the restriction endonuclease GlaI (Sibenzyme), which cleaves the oligonucleotide, releasing the fluorophore from the quencher and generating fluorescence. […] 96 well assays were performed in Co-Star black half-area plates and read in a Biotek Synergy Neo plate reader. […] FAM fluorescence was measured using excitation and emission wavelengths of 485 nm and 520 nm, respectively. […]
outcome-measure: vo (initial velocity) (RFU/min)
One number for each entry, in RFU/min.

Recorded results for 6 compounds are shown here.
Provide the documented vo (initial velocity) with DNMT1 (amino acids 621–1616) (Homo sapiens) as the system for CC(=O)NCCc1ccc(O)c(-c2c(O)c(O)c3c(c2O)C(=O)c2c(cc(O)c(C(=O)O)c2C(=O)O)C3=O)c1 6

Value wanted: vo (initial velocity) (DNMT1 (amino acids 621–1616) (Homo sapiens)) of entry O=c1c(O)c(-c2ccc(O)c(O)c2)oc2c(O)c(O)cc(O)c12 25

Find vo (initial velocity) (DNMT1 (amino acids 621–1616) (Homo sapiens)) for the entry O=C1c2ccccc2C(=O)c2c1ccc(O)c2O 27

Report vo (initial velocity) for CSc1nc2cc(Cl)c(Oc3cccc(Cl)c3Cl)cc2[nH]1 tested on DNMT1 (amino acids 621–1616) (Homo sapiens). 20

Under DNMT1 (amino acids 621–1616) (Homo sapiens): vo (initial velocity) value of CC1/C=C/C=C/C=C/C=C/C=C/C=C/C=C/C(O[C@@H]2O[C@H](C)[C@H](O)[C@@H](O)[C@@H]2N)CC(O)C(C(=O)O)C(O)CC(=O)CC(O)CC(O)CC(O)CC(=O)CCCC(=O)CC(=O)OC1C(C)CC(C)C(O)CC(=O)c1ccc(N)cc1 (stereo partly shown) ? 5

Give the reported vo (initial velocity) for Oc1cc(Cl)ccc1Oc1ccc(Cl)cc1Cl (system: DNMT1 (amino acids 621–1616) (Homo sapiens)). 15

Alright, here's another compound for you.
Hello, I am looking for reported vo (initial velocity) with DNMT1 (amino acids 621–1616) (Homo sapiens) for O=C(O)C(S)C(S)C(=O)O (stereo not shown) . Could you help? 5

###

- target-under-test: DNMT1 (amino acids 621–1616) (Homo sapiens, UniProt P26358)
- Construct: RFTS-lacking DNMT1, amino acids 621–1616; made in house
- test-protocol: Differential scanning fluorimetry (DSF) assay
- Assay type: binding
- condition-description: 100 µM compound, 2 µM DNMT1, no DNA or SAM; DMSO 46.5 ± 0.1
For each entry below, report its Tm value.

See these solved cases before continuing.
Bench note: what Tm did CC1/C=C/C=C/C=C/C=C/C=C/C=C/C=C/C(O[C@@H]2O[C@H](C)[C@H](O)[C@@H](O)[C@@H]2N)CC(O)C(C(=O)O)C(O)CC(=O)CC(O)CC(O)CC(O)CC(=O)CCCC(=O)CC(=O)OC1C(C)CC(C)C(O)CC(=O)c1ccc(N)cc1 (some centres unmarked) show? 47.5 ± 0.1 ºC

Need Tm, item O=C(O)c1cc(O)c2c(c1)[C@@H]([C@@H]1c3cc(C(=O)O)cc(O)c3C(=O)c3c(O[C@H]4O[C@H](CO)[C@@H](O)[C@H](O)[C@H]4O)cccc31)c1cccc(O[C@H]3O[C@H](CO)[C@@H](O)[C@H](O)[C@H]3O)c1C2=O 47.4 ± 0.1 ºC

Item O=C(O)c1cc(O)c2c(c1)[C@@H]([C@H]1c3cc(C(=O)O)cc(O)c3C(=O)c3c(O[C@H]4O[C@H](CO)[C@@H](O)[C@H](O)[C@H]4O)cccc31)c1cccc(O[C@H]3O[C@H](CO)[C@@H](O)[C@H](O)[C@H]3O)c1C2=O has what recorded Tm? 47.5 ± 0.1 ºC

Need Tm, item O=C1c2ccccc2C(=O)c2c1ccc(O)c2O 48.5 ± 0.1 ºC

Now take the following compound into account.
Field request: Tm | item: O=c1c(O)c(-c2ccc(O)c(O)c2)oc2c(O)c(O)cc(O)c12 64.4 ± 0.2 ºC
